Target: hM1 (human Muscarinic receptor subtype 1) (Homo sapiens, UniProt P11229)
Sequence (P11229 1-460): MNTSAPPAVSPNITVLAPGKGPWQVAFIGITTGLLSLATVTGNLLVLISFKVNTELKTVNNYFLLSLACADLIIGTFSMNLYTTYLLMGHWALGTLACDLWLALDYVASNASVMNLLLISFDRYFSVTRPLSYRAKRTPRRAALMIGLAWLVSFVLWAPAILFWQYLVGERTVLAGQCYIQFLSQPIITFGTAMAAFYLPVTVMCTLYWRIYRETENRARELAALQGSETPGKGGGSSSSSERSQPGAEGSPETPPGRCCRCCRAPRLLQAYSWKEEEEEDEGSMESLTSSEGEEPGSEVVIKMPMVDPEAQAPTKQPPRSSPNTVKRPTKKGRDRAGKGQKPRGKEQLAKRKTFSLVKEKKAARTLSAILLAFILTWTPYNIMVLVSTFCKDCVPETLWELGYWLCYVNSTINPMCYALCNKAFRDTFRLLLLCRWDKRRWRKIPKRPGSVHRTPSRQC
Test: Human M1 calcium mobilization FLIPR assay
Details: CHO cells expressing hM1, intracellular Ca2+ release
Give pEC50 for every item shown.
One number for each entry, as −log10 of the molar value.

Example results:
CC1(N2CCC(N3C(=O)N[C@H]4CCCC[C@@H]43)CC2)CCN(C(=O)OCCF)C1 (mixture of isomers)
7.16
CCOC(=O)N1CCC(C)(N2CCC(N3C(=O)N[C@@H]4CCCC[C@@H]43)CC2)CC1 (relative stereo)
7.96
CC#CCOC(=O)N1CCC(C)(N2CCC(N3C(=O)N[C@H]4CCCC[C@@H]43)CC2)C1 (single isomer, unassigned) [Example 19]
8.31

Batch of 2 molecules: report pEC50 for each.
1. CC(C)OC(=O)N1CCC(C)(N2CCC(N3C(=O)N[C@@H]4CCCC[C@@H]43)CC2)CC1 (relative stereo)
2. CC1(N2CCC(N3C(=O)C[C@H]4CCCC[C@@H]43)CC2)CCN(C(=O)C2CC2)CC1

Result:
1. 7.27
2. 7.44

Batch of 5 molecules: report pEC50 for each.
1. CCOC(=O)N1CCC(C)(N2CCC(N3C(=O)C[C@@H]4CCCC[C@H]43)CC2)C1 (stereo in doubt)
2. CC(C)OC(=O)N1CCC(C)(N2CCC(N3C(=O)N[C@H]4CCCC[C@@H]43)CC2)CC1
3. CCOC(=O)N1CCC(C)(N2CCC(N3C(=O)N[C@H]4CCCC[C@@H]43)CC2)C1 (single isomer, unassigned) [Example 22]
4. C#CCOC(=O)N1CCC(C)(N2CCC(N3C(=O)N[C@H]4CCCC[C@@H]43)CC2)CC1
5. CCOC(=O)N1CCC(C)(N2CCC(N3C(=O)N[C@H]4CCCC[C@@H]43)CC2)C1 (mixture of isomers) [Example 07]

Result:
1. 7.66
2. 8.36
3. 8.52
4. 8.82
5. 7.85

Batch of 5 molecules: report pEC50 for each.
1. CC(C)OC(=O)N1CCC(C)(N2CCC(N3C(=O)C[C@H]4CCCC[C@@H]43)CC2)CC1
2. CC#CCOC(=O)N1CCC(C)(N2CCC(N3C(=O)N[C@H]4CCCC[C@@H]43)CC2)C1 (single isomer, unassigned) [Example 20]
3. CC#CCOC(=O)N1CCC(C)(N2CCC(N3C(=O)N[C@H]4CCCC[C@@H]43)CC2)CC1
4. CCC(=O)N1CCC(C)(N2CCC(N3C(=O)N[C@H]4CCCC[C@@H]43)CC2)CC1
5. CCOC(=O)N1CCC(C)(N2CCC(N3C(=O)N[C@H]4CCCC[C@@H]43)CC2)CC1

Result:
[7.72, 6.59, 8.44, 7.18, 8.72]

Batch of 6 molecules: report pEC50 for each.
1. CC1(N2CCC(N3C(=O)N[C@@H]4CCCC[C@H]43)CC2)CCN(C(=O)C2CC2)CC1
2. CC(C)OC(=O)N1CCC(C)(N2CCC(N3C(=O)N[C@@H]4CCCC[C@H]43)CC2)CC1
3. CCOC(=O)N1CCC(C)(N2CCC(N3C(=O)N[C@H]4CCCC[C@@H]43)CC2)C1 (single isomer, unassigned) [Example 21]
4. CCOC(=O)N1CCC(C)(N2CCC(N3C(=O)N[C@@H]4CCCC[C@H]43)CC2)C1 (mixture of isomers)
5. COC(=O)N1CCC(C)(N2CCC(N3C(=O)N[C@H]4CCCC[C@@H]43)CC2)C1 (mixture of isomers)
6. CCOC(=O)N1CCC(C)(N2CCC(N3C(=O)N[C@@H]4CCCC[C@H]43)CC2)CC1

Result:
[7.29, 7.60, 7.74, 7.26, 7.16, 8.48]

---

Molecular target: hM3 (human Muscarinic receptor subtype 3) (Homo sapiens)
Sequence (P20309 whole entry): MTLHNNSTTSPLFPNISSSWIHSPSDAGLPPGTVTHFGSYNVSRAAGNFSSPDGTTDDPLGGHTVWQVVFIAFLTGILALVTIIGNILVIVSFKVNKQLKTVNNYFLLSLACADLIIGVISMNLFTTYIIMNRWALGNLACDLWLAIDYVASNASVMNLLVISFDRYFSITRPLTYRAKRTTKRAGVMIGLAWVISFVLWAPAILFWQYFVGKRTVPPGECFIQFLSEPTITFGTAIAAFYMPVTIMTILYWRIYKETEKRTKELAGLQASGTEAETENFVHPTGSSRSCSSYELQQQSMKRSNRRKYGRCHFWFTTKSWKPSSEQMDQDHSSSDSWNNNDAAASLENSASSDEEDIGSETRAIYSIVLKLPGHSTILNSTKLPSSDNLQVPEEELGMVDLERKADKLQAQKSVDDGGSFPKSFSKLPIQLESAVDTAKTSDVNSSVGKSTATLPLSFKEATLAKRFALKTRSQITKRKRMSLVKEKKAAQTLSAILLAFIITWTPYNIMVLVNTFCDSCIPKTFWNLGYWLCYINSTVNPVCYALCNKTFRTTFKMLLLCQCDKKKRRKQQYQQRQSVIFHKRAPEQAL
Assay: Human M3 calcium mobilization FLIPR assay
Settings: CHO cells expressing hM3, intracellular Ca2+ release
pEC50: −log10 of the molar value.
Give pEC50 for every item shown.

Example results:
CC1(N2CCC(N3C(=O)C[C@H]4CCCC[C@@H]43)CC2)CCN(C(=O)C2CC2)CC1
< 4.40
CC(C)OC(=O)N1CCC(C)(N2CCC(N3C(=O)N[C@@H]4CCCC[C@H]43)CC2)CC1
< 4.31
CCOC(=O)N1CCC(C)(N2CCC(N3C(=O)N[C@@H]4CCCC[C@H]43)CC2)CC1
< 5.38
CCOC(=O)N1CCC(C)(N2CCC(N3C(=O)N[C@H]4CCCC[C@@H]43)CC2)C1 (single isomer, unassigned) [Example 22]
< 4.59
CC(C)OC(=O)N1CCC(C)(N2CCC(N3C(=O)C[C@H]4CCCC[C@@H]43)CC2)CC1
< 4.40
CCC(=O)N1CCC(C)(N2CCC(N3C(=O)N[C@H]4CCCC[C@@H]43)CC2)CC1
< 4.40
CCOC(=O)N1CCC(C)(N2CCC(N3C(=O)N[C@@H]4CCCC[C@@H]43)CC2)CC1 (relative stereo)
< 4.40
CC(C)OC(=O)N1CCC(C)(N2CCC(N3C(=O)N[C@@H]4CCCC[C@@H]43)CC2)CC1 (relative stereo)
< 4.40

Batch of 8 molecules: report pEC50 for each.
1. CCOC(=O)N1CCC(C)(N2CCC(N3C(=O)N[C@H]4CCCC[C@@H]43)CC2)CC1
2. CC(C)OC(=O)N1CCC(C)(N2CCC(N3C(=O)N[C@H]4CCCC[C@@H]43)CC2)CC1
3. CCOC(=O)N1CCC(C)(N2CCC(N3C(=O)N[C@H]4CCCC[C@@H]43)CC2)C1 (mixture of isomers) [Example 07]
4. CC1(N2CCC(N3C(=O)N[C@@H]4CCCC[C@H]43)CC2)CCN(C(=O)C2CC2)CC1
5. CCOC(=O)N1CCC(C)(N2CCC(N3C(=O)C[C@@H]4CCCC[C@H]43)CC2)C1 (stereo in doubt)
6. CCOC(=O)N1CCC(C)(N2CCC(N3C(=O)N[C@H]4CCCC[C@@H]43)CC2)C1 (single isomer, unassigned) [Example 21]
7. CC1(N2CCC(N3C(=O)N[C@H]4CCCC[C@@H]43)CC2)CCN(C(=O)C2CC2)CC1
8. CC#CCOC(=O)N1CCC(C)(N2CCC(N3C(=O)N[C@H]4CCCC[C@@H]43)CC2)CC1

Result:
5.85
< 4.40
< 4.40
< 4.31
< 3.92
< 4.66
< 4.40
< 4.40

Q: I'd like to know its pEC50. The molecule in question is C#CCOC(=O)N1CCC(C)(N2CCC(N3C(=O)N[C@H]4CCCC[C@@H]43)CC2)C1 (mixture of isomers)
Result: < 4.40

---

Give EC50 for every item shown.
Biological target: cloned human M2 receptor (Homo sapiens)
Sequence (P08172 1-466): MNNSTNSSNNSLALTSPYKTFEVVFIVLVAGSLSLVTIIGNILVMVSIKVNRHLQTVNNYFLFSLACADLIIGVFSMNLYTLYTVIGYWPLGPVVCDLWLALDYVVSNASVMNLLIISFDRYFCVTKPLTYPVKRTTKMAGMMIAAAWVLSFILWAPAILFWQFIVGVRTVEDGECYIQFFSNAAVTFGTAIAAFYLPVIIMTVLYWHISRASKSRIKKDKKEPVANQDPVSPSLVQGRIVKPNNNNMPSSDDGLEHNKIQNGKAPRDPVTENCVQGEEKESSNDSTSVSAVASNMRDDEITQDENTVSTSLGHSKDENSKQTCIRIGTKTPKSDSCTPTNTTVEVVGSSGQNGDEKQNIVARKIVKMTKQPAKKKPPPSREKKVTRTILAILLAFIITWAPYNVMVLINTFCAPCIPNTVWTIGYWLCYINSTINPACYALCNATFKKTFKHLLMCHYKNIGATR
Experiment: hM2 receptor GTPγS binding
Details: CHO membranes expressing hM2, [35S]GTPγS binding
Numbers only, in µM.

CCOC(=O)N1CCC(C)(N2CCC(N3C(=O)N[C@H]4CCCC[C@@H]43)CC2)C1 (single isomer, unassigned) [Example 22]
1.17

Shift focus to the following entry.
Q: Value wanted: EC50 (cloned human M2 receptor (Homo sapiens)) of entry CC#CCOC(=O)N1CCC(C)(N2CCC(N3C(=O)N[C@H]4CCCC[C@@H]43)CC2)CC1 [Example 16]
Result: 0.121
